Tested on: Rattus norvegicus
Assay: Cardiovascular response in conscious hypertensive rats after administration of compound expressed as percent reduction in heart rate; further: test concentration or dose not given here
Format: functional
HR listing for selected compounds.
Experimental Readout: HR (%)

{"columns": ["Compound", "Experimental Readout", "Test Result"],
 "data": [
  ["Cn1c(=O)[nH]c2c(nc(N)n2C2O[C@H](CO)[C@@H](O)[C@H]2O)c1=N (stereo partly drawn)", "HR", -20],
  ["CCn1c(=O)[nH]c2c(ncn2C2O[C@H](CO)[C@@H](O)[C@H]2O)c1=N (stereo partly drawn)", "HR", -27],
  ["Cn1c(=O)[nH]c2c(nc(NN)n2C2O[C@H](CO)[C@@H](O)[C@H]2O)c1=N (stereo partly drawn)", "HR", -21],
  ["CCCCn1c(=O)[nH]c2c(ncn2C2O[C@H](CO)[C@@H](O)[C@H]2O)c1=N (stereo partly drawn)", "HR", -16],
  ["Cn1c(=O)[nH]c2c(ncn2C2O[C@@H]3COP(=O)(O)O[C@@H]3[C@@H]2O)c1=N (stereo partly drawn)", "HR", -37],
  ["Cn1c(=O)[nH]c2c(ncn2C2O[C@H](CO)[C@@H](O)[C@H]2O)c1=N (stereo partly drawn)", "HR", -36],
  ["COc1nc(N)c2ncn([C@@H]3O[C@H](CO)[C@@H](O)[C@H]3O)c2n1", "HR", -25],
  ["Cn1c(=O)[nH]c2c(ncn2C2O[C@H](COP(=O)(O)O)[C@@H](O)[C@H]2O)c1=N (stereo partly drawn)", "HR", -48]
]}
